- targetDesc: Cytochrome P450 1A2 (Homo sapiens, UniProt P05177)
- Sequence (P05177 whole entry): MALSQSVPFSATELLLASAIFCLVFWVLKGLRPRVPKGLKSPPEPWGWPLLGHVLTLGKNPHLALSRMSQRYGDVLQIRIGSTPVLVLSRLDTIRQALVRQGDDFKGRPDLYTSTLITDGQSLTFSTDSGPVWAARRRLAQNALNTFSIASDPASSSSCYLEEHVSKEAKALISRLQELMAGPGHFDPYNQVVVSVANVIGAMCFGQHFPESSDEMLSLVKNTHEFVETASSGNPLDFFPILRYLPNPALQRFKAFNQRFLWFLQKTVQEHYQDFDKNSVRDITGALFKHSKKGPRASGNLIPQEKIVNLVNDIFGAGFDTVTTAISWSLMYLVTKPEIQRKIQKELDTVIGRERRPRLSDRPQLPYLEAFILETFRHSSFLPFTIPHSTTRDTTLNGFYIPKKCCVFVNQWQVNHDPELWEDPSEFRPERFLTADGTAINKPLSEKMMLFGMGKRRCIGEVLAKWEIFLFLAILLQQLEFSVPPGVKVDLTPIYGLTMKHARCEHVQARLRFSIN
experimentalReadout: IC50

structurestring=Cc1cc(NC(=O)Nc2cc(C(C)(C)C)nn2-c2ccccc2)ccc1-c1cnc(NC2CC2)c2nccn12 valuereported="> 25 µM"

----------
- method: AUC (0 to 7 hrs) in ICR mouse at 10 mg/kg, po administered as single dose or 3 mg/kg, iv by LC-MS/MS analysis
- Assay type: ADME, organism-based
- reportedConditions: in vivo
experimentalReadout: AUC(0-t) (ng·h/mL)

structurestring=Cc1cc(NC(=O)Nc2cc(C(C)(C)C)nn2-c2cccc(C#N)c2)ccc1-c1cnc(NC2CC2)c2nccn12 valuereported=360

----------
- method: Cmax in ICR mouse at 10 mg/kg, po administered as single dose or 3 mg/kg, iv by LC-MS/MS analysis
- Format: ADME, organism-based
- reportedConditions: in vivo
experimentalReadout: Cmax (ng/mL)

structurestring=Cc1cc(NC(=O)Nc2cc(C(C)(C)C)nn2-c2cccc(C#N)c2)ccc1-c1cnc(NC2CC2)c2nccn12 valuereported=231

----------
- targetDesc: Cytochrome P450 2C9 (Homo sapiens, UniProt P11712)
- Sequence (P11712 whole entry): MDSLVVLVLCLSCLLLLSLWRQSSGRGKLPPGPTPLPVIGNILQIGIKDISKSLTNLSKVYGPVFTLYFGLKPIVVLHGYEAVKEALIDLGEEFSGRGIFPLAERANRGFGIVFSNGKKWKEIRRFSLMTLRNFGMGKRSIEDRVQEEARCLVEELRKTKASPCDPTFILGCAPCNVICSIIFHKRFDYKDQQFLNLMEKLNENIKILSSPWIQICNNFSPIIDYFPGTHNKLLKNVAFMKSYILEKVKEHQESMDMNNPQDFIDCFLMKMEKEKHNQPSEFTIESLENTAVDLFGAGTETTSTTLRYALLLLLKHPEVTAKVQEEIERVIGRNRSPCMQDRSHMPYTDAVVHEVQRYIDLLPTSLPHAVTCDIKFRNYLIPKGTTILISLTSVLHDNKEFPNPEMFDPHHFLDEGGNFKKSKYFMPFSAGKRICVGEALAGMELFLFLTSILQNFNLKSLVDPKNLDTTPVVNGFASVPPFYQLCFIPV
experimentalReadout: IC50

structurestring=Cc1cc(NC(=O)Nc2cc(C(C)(C)C)nn2-c2ccccc2)ccc1-c1cnc(NC2CC2)c2nccn12 targetdesc="Cytochrome P450 2C9 (Homo sapiens, UniProt P11712)" valuereported="3.5 µM"

----------
- targetDesc: Mitogen-activated protein kinase kinase kinase 7 (Homo sapiens) (UniProt O43318)
- Sequence (O43318 whole entry): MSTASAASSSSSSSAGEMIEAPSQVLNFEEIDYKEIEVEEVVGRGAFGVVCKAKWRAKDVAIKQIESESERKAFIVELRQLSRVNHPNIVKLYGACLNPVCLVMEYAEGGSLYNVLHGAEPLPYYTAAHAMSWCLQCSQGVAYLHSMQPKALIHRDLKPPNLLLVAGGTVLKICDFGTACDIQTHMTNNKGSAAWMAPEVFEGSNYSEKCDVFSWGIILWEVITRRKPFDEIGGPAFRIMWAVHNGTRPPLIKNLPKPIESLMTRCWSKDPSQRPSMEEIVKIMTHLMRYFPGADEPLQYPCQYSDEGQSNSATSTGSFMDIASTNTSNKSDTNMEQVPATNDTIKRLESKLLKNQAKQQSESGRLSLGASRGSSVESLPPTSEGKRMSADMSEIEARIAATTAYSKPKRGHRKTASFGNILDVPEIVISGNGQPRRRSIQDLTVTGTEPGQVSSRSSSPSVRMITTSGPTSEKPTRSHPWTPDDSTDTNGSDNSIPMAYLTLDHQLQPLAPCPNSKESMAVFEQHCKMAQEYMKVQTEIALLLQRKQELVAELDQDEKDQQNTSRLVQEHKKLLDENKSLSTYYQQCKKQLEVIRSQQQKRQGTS
- method: Inhibition of TAK1 (unknown origin) at 1 uM by LanthaScreen Eu kinase binding assay relative to control
Entries and their inhibition
experimentalReadout: inhibition (%)

structurestring=Cc1cc(NC(=O)Nc2cc(C(C)(C)C)nn2-c2cccnc2)ccc1-c1cnc(NC2CC2)c2nccn12 targetdesc="Mitogen-activated protein kinase kinase kinase 7 (Homo sapiens) (UniProt O43318)" experimentalreadout=inhibition valuereported=89
structurestring=Cc1cc(NC(=O)Nc2cc(C(C)(C)C)nn2-c2ccccc2)ccc1Oc1cnc(NC2CC2)c2nccn12 targetdesc="Mitogen-activated protein kinase kinase kinase 7 (Homo sapiens) (UniProt O43318)" experimentalreadout=inhibition valuereported=90
structurestring=Cc1ccc(-n2nc(C(C)(C)C)cc2NC(=O)Nc2ccc(-c3cnc(NC4CC4)c4nccn34)c(C)c2)cc1 targetdesc="Mitogen-activated protein kinase kinase kinase 7 (Homo sapiens) (UniProt O43318)" experimentalreadout=inhibition valuereported=91
